Please provide measured MEC to Produce TLR Activation: TLR 7 for the entries that follow.
molecular target: human TLR7 (Homo sapiens, UniProt Q9NYK1); construct: host or cells: HEK293 (HEK-BLUE-hTLR7); assay: TLR activation, HEK-BLUE-hTLR7 SEAP reporter cells; format: cell-based; conditions: 16-20 hours, lowest concentration giving SEAP response at least 2x vehicle control, tested 0.01-30 micromolar
Sequence (Q9NYK1 27-1049): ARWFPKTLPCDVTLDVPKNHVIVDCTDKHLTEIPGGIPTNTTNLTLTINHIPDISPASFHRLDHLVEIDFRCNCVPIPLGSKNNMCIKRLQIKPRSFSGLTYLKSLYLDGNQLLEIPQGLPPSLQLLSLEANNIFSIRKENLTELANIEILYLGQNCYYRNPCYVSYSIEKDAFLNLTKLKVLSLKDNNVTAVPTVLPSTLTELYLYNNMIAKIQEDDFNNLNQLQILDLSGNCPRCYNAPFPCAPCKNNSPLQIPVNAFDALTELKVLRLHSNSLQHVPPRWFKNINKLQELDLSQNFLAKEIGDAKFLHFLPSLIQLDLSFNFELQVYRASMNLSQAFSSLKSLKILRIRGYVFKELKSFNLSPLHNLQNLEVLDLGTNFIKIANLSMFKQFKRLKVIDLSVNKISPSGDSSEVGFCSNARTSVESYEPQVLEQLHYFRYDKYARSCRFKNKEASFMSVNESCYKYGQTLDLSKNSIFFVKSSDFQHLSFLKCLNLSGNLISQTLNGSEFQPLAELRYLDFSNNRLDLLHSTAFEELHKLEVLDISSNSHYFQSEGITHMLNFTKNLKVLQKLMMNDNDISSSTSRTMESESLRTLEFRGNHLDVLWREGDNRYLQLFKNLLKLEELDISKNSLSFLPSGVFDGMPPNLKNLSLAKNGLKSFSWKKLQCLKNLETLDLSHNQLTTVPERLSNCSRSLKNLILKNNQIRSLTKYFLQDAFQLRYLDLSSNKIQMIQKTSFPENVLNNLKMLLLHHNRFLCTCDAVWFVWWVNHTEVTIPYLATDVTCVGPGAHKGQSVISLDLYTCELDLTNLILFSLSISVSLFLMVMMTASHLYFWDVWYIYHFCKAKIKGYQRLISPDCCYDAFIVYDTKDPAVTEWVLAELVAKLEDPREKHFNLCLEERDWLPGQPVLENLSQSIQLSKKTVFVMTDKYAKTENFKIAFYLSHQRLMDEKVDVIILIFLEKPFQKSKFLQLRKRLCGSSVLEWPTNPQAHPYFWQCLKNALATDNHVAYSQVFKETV

Recorded results for 6 compounds are shown here.
compound: CC(C)C[C@H](n1cnc2c(N)nc3ccccc3c21)C(C)(C)O [Example 18]
target.of.assay: human TLR7 (Homo sapiens, UniProt Q9NYK1)
measured.value: >30 µM
//
compound: C[C@@H](n1cnc2c(N)nc3ccccc3c21)C(C)(C)C [Example 3]
target.of.assay: human TLR7 (Homo sapiens, UniProt Q9NYK1)
measured.value: 1.11 µM
//
compound: CCCC[C@@H](n1cnc2c(N)nc3ccccc3c21)C(C)(C)C [Example 8]
target.of.assay: human TLR7 (Homo sapiens, UniProt Q9NYK1)
measured.value: ≤0.01 µM
//
compound: CC(C)[C@H](C)n1cnc2c(N)nc3ccccc3c21 [Example 2]
target.of.assay: human TLR7 (Homo sapiens, UniProt Q9NYK1)
measured.value: >30 µM
//
compound: C[C@H](n1cnc2c(N)nc3ccccc3c21)C(C)(C)O [Example 10]
target.of.assay: human TLR7 (Homo sapiens, UniProt Q9NYK1)
measured.value: >30 µM
//
compound: C[C@H](C1CCCCC1)n1cnc2c(N)nc3ccccc3c21 [Example 5]
target.of.assay: human TLR7 (Homo sapiens, UniProt Q9NYK1)
measured.value: 1.11 µM

Can you give me MEC to Produce TLR Activation: TLR 7 for all of these, one by one?
1. CC(C)[C@@H](C)n1cnc2c(N)nc3ccccc3c21 [Example 1]
2. C[C@@H](n1cnc2c(N)nc3ccccc3c21)C(C)(C)F [Example 20]
3. C[C@@H](n1cnc2c(N)nc3ccccc3c21)C(C)(C)O [Example 9]
4. C[C@@H](C1CCCCC1)n1cnc2c(N)nc3ccccc3c21 [Example 6]
5. CC[C@H](n1cnc2c(N)nc3ccccc3c21)C(C)(C)O [Example 12]

Completion:
1.1 µM
3.3 µM
3.3 µM
>30 µM
>30 µM

Can you give me MEC to Produce TLR Activation: TLR 7 for all of these, one by one?
1. CCC(O)(CC)[C@@H](C)n1cnc2c(N)nc3ccccc3c21 [Example 19]
2. CCC[C@H](n1cnc2c(N)nc3ccccc3c21)C(C)(C)O [Example 14]
3. CC(C)Cn1cnc2c(N)nc3ccccc3c21 [Comparative Example 1, 1-isobutylimidazo[4,5-c]quinolin-4-amine, reference compound]

Completion:
1: 3.3 µM; 2: >30 µM; 3: 10 µM

Can you give me MEC to Produce TLR Activation: TLR 7 for all of these, one by one?
1. CC[C@@H](n1cnc2c(N)nc3ccccc3c21)C(C)(C)O [Example 11]
2. CCCC[C@H](n1cnc2c(N)nc3ccccc3c21)C(C)(C)O [Example 16]
3. CC(C)C[C@@H](n1cnc2c(N)nc3ccccc3c21)C(C)(C)O [Example 17]
4. C[C@H](n1cnc2c(N)nc3ccccc3c21)C(C)(C)C [Example 4]
5. C[C@H](n1cnc2c(N)nc3ccccc3c21)C(C)(C)F [Example 21]

Completion:
1: 1.1 µM; 2: >30 µM; 3: 1.1 µM; 4: >30 µM; 5: >30 µM
